target: Pantothenate synthetase (Mycobacterium tuberculosis (strain ATCC 25618 / H37Rv)) (UniProt P9WIL5); test: Coupled enzyme confirmation of inhibitors against recombinant Mtb PanC (AID 375); conditions: coupled enzyme assay; at 10 µM, stronger effect = higher value;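 further: 0% = full reaction with vehicle and 100% = no enzyme background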
Sequence (P9WIL5 whole entry, looked up): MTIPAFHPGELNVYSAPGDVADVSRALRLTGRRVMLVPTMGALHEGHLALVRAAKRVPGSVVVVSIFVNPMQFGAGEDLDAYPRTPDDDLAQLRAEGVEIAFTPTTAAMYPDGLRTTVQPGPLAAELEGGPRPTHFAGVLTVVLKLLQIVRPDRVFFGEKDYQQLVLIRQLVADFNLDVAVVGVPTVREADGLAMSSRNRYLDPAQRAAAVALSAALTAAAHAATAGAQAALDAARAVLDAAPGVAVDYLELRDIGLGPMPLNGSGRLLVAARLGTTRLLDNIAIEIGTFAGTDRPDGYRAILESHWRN
Would you mind telling me the reported inhibition of each entry?
Write the number in % without appending the unit.

Exercise: Tell me measured inhibition for O=C(CN1CCC(O)(c2ccc3c(c2)OCO3)CC1)OC1CCCCC1 please.
Solution: 0

Exercise: Give a short answer stating reported inhibition for COc1ccccc1CNS(=O)(=O)c1ccc(NC(C)=O)cc1 .
Solution: 0

Exercise: Answer with the recorded inhibition for the molecule listed here: CCOc1ccc(S(=O)(=O)NCC2CCCO2)c2cccnc12 (centres undefined)
Solution: 0

Exercise: For CN(C(=O)c1cc2sccc2n1C)C1CCCCC1 , write its inhibition.
Solution: 6

Exercise: In one line, give reported inhibition of the entry CCCc1cc(N2CCCC2)n2nc(C)c(-c3ccccc3)c2n1 .
Solution: 0

Exercise: Check the records and state inhibition for Cn1c(=O)c(=O)n(C)c2cc(S(=O)(=O)CCC(=O)N3CCOCC3)ccc21
Solution: 0

Exercise: Supply measured inhibition of COc1ccc(N(CC(=O)O)S(=O)(=O)c2ccc(OC)c(OC)c2)cc1 in your reply.
Solution: 5

Exercise: Please look at this molecule and report its inhibition: CNc1nnc(-c2cccc(N(C)C)c2)s1
Solution: 0

Exercise: Specify inhibition for COc1ccc(OCC(=O)N2CCN(C(=O)c3cccs3)CC2)cc1 and stop.
Solution: 5

Exercise: Kindly indicate its recorded inhibition. Item: CCOC(=O)C1CCCN(C(=O)c2cc(=O)c3ccccc3o2)C1 (centres undefined)
Solution: 5

Exercise: Give the reported value of inhibition for this record: Cn1c(-c2ccc(C(C)(C)C)cc2)n[nH]c1=S
Solution: 0

Exercise: Determine its reported inhibition: CCOC(=O)N1CCN(S(=O)(=O)c2ccc(F)c(C(=O)Nc3cc(C)cc(C)c3)c2)CC1
Solution: 7

Exercise: Specify reported inhibition for the molecule shown: CCOC(=O)N1CCC(n2c(SCC(=O)NCc3ccco3)nc3ccsc3c2=O)CC1
Solution: 0

Exercise: Specify measured inhibition for CC1Cc2ccccc2N1Cc1cc(=O)n2ccsc2n1 (centres undefined) .
Solution: 0

Exercise: Please give the documented inhibition of CCOc1ccc2c(c1)c1nnc(SCC(=O)N3CCC(C)CC3)nc1n2C
Solution: 1

Exercise: Specify inhibition for O=C1C2CC=C(Cl)CC2C(=O)N1c1ncn[nH]1 (centres undefined) and stop.
Solution: 0

Exercise: Please report the measured inhibition for CCCCCC(=O)N1CC2(CC)CN(C(=O)CCCCC)CC(CC)(C1)C2=O
Solution: 4

Exercise: Please give the documented inhibition of CC(=O)N1CCc2cc(S(=O)(=O)NCCC(=O)NC3CCCc4ccccc43)ccc21 (centres undefined)
Solution: 0

Exercise: Could you please provide reported inhibition for CC(=O)Nc1ccc(S(=O)(=O)N2CCC(c3nc4ccccc4[nH]3)CC2)cc1 ? Thanks!
Solution: 0

Exercise: Specify measured inhibition for CC1CCCN(C(=O)c2cc(F)c(F)cc2Cl)C1 (centres undefined) .
Solution: 0

Exercise: Quote inhibition reported for COC(=O)c1ccccc1NC(=O)c1noc2c1CC(C(C)(C)C)CC2 (centres undefined) please.
Solution: 2

Exercise: Check the records and state inhibition for Cc1cc(C)c(C#N)c(SCC(=O)Nc2ccc(S(=O)(=O)Nc3onc(C)c3C)cc2)n1
Solution: 0

Exercise: Provide only the value of recorded inhibition for O=C(O)c1cc(-c2ccccc2)nc2ccccc12
Solution: 3

Exercise: Retrieve inhibition measured for Cc1cccc(NC2SC(=O)N(c3ccccc3)C2=O)c1 (centres undefined) and print it.
Solution: 0

Exercise: For the molecule c1ccc2c3c([nH]c2c1)CNCC3 , report inhibition.
Solution: 0

Exercise: Identify measured inhibition corresponding to COc1ccc(-c2noc(COc3ccc(C)c(C)c3)n2)cc1OC
Solution: 0

Exercise: Answer with the recorded inhibition for the molecule listed here: O=C1CC(N2CCN(c3cccc(C(F)(F)F)c3)CC2)C(=O)N1c1ccccc1 (centres undefined)
Solution: 0

Exercise: State, in one line, measured inhibition of COc1ccccc1N1CCN(S(=O)(=O)CC23CCC(CC2=O)C3(C)C)CC1 (centres undefined)
Solution: 1

Exercise: Given Cc1ccc(C)c(-n2nnnc2SCC(=O)NCCC2=CCCCC2)c1 , respond with its inhibition.
Solution: 3

Exercise: Tell us which inhibition value is on record for O=S(=O)(NCc1ccco1)c1cccc2cccnc12
Solution: 1

Exercise: Specify measured inhibition for Cc1cc(NC(=O)C2CCCC2)nc2c1c(=O)oc1ccccc12 .
Solution: 12

Exercise: Specify measured inhibition for COC1CCCCC1NS(=O)(=O)c1ccccc1 (centres undefined) .
Solution: 0

Exercise: Supply recorded inhibition for COC(=O)C1=C(C)N(Cc2ccco2)C(=O)C1 here.
Solution: 0

Exercise: Give the measured inhibition for Cc1csc(OCc2ccc(C#N)cc2)n1
Solution: 0

Exercise: Name the recorded inhibition of the item O=C(c1cccs1)c1cn(CC(=O)N2CCc3ccccc3C2)c2ccccc12 in your answer.
Solution: 2

Exercise: Supply recorded inhibition for CC(C)Sc1nc2c(c(=O)n1-c1ccc(F)cc1)SCC2 here.
Solution: 1

Exercise: Give a short answer stating reported inhibition for COc1ccc(CCNC(=O)c2ccncc2)cc1OC .
Solution: 4

Exercise: Name the recorded inhibition of the molecule listed here: CCOC(=O)N1CCN(C(=O)CN2C(=O)COc3ccc(C)cc32)CC1
Solution: 6

Exercise: Give a short answer stating reported inhibition for CCOc1nc(-c2ccccc2)ccc1-c1noc(-c2ccc(OC)c(OC)c2)n1 .
Solution: 4
